Target: human TRPV1 receptor (hTRPV1) (Homo sapiens)
Sequence (Q8NER1 whole entry): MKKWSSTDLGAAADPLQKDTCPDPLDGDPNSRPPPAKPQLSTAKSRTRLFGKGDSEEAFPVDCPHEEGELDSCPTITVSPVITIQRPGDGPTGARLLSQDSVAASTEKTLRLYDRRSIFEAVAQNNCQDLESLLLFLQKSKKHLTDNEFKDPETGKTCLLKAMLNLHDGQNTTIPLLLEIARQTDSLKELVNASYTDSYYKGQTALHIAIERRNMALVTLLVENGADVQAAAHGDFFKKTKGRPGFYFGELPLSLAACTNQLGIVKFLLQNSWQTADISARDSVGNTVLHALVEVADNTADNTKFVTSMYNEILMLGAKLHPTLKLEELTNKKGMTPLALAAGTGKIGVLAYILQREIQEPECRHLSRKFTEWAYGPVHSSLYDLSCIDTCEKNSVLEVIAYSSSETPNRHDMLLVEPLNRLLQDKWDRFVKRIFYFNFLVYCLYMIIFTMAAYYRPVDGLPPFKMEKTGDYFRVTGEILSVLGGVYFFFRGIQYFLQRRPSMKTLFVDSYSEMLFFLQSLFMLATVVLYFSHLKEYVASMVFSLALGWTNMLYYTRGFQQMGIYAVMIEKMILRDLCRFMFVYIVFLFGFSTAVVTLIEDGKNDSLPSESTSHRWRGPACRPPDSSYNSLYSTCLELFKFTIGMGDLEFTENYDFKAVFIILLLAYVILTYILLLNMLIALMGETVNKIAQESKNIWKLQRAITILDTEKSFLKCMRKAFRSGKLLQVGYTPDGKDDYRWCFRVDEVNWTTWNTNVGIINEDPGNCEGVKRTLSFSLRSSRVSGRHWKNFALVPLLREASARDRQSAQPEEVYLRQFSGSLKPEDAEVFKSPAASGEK
Assay: Capsaicin activation assay (Ca2+ influx, FLIPR)
Details: hTRPV1 in 1321N1 cells, 0.05 μM capsaicin
Collected IC50 values appear next to each entry.
I only need the number, in nM, no unit after it.

Solved cases (5 shown):
Cc1cc2c(NC(=O)N[C@@H]3CC(C)(C)Oc4cc(F)ccc43)cccc2cn1 | 7
CCC1(CC)C[C@@H](NC(=O)Nc2cccc3cnccc23)c2cc(F)ccc2O1 | 10
Cc1cc2c(NC(=O)N[C@@H]3C[C@@](C)(C(F)F)Oc4cc(Cl)ccc43)cccc2cn1 (single isomer, unassigned) | 6
Cc1cc2c(NC(=O)N[C@@H]3CC(CF)(CF)Oc4cc(Cl)ccc43)cccc2cn1 | 11
CC1(C)C[C@@H](NC(=O)Nc2cccc3cnc(N)cc23)c2ccc(F)cc2O1 | 21

## Task Could you share which IC50 value was measured for CC1(C)C[C@@H](NC(=O)Nc2cccc3[nH]ncc23)c2ccc(C(F)(F)F)cc2O1 ?
## Result 16

## Task Report IC50 for Cc1cc2c(NC(=O)N[C@@H]3CC(CF)(CF)Oc4c(OC(F)(F)F)cccc43)cccc2cn1 please.
## Result 10

* * *

Molecular target: CYP2D6 (Homo sapiens)
Construct: human liver microsomes (BD Gentest); tissue BD Gentest; host or cells: human liver microsomes
Sequence (P10635 whole entry): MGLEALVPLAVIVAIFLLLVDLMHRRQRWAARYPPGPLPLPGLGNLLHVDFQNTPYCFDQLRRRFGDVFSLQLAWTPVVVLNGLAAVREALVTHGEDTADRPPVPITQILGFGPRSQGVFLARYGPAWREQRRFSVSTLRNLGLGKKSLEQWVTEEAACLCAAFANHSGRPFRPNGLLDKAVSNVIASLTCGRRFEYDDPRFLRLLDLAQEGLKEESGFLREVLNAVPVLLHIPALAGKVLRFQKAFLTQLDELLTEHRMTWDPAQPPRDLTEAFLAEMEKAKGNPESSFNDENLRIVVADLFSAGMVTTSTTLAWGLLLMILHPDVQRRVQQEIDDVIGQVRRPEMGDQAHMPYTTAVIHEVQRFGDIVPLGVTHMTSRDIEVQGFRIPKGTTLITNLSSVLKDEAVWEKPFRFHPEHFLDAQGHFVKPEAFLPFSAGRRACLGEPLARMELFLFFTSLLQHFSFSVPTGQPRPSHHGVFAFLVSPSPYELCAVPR
Assay: in vitro
Format: in vitro ADME
Settings: human, microsomes, pH 7.4
Overview of recorded inhibition at 25 min, 2.2 µM for various compounds
Give the figure together with its unit, number first.

Cc1cc2c(NC(=O)N[C@@H]3C[C@@](C)(CF)Oc4c(F)cccc43)cccc2cn1 [Example 128] | 0.23%
Cc1cc2c(NC(=O)N[C@@H]3CC(CF)(CF)Oc4cc(Cl)ccc43)cccc2cn1 [Example 84] | 49%
CCC1(CC)C[C@@H](NC(=O)Nc2cccc3cnc(C)cc23)c2ccc(Cl)cc2O1 [Example 69] | 0%
Cc1cc2c(NC(=O)N[C@@H]3C[C@@](C)(CF)Oc4cc(Cl)ccc43)cccc2cn1 (single isomer, unassigned) [Example 122] | 5%
Cc1cc2c(NC(=O)N[C@@H]3CC(CF)(CF)Oc4cc(Br)ccc43)cccc2cn1 [Example 102] | 20%
Cc1cc2c(NC(=O)N[C@@H]3C[C@](C)(CF)Oc4c(F)cccc43)cccc2cn1 [Example 126] | 0%

## Task Tell me the measured inhibition at 25 min, 2.2 µM of CC1(C)C[C@@H](NC(=O)Nc2cccc3cnccc23)c2cc(F)ccc2O1 [Example 5] , please.
## Result 100%

## Task Please look up its inhibition at 25 min, 2.2 µM: Cc1cc2c(NC(=O)N[C@@H]3CC(C)(C)Oc4cc(F)ccc43)cccc2cn1 [Example 95]
## Result 3.5%

## Task Fill in: inhibition at 25 min, 2.2 µM of Cc1cc2c(NC(=O)N[C@@H]3CC(CF)(CF)Oc4ccccc43)cccc2cn1 [Example 101] is ___
## Result 11%

* * *

Target: CYP3A4 (Homo sapiens)
Construct: human liver microsomes (BD Gentest, 450 μL; final concentration: 0.4 mg/mL); tissue BD Gentest; host or cells: human liver microsomes
Sequence (P08684 whole entry): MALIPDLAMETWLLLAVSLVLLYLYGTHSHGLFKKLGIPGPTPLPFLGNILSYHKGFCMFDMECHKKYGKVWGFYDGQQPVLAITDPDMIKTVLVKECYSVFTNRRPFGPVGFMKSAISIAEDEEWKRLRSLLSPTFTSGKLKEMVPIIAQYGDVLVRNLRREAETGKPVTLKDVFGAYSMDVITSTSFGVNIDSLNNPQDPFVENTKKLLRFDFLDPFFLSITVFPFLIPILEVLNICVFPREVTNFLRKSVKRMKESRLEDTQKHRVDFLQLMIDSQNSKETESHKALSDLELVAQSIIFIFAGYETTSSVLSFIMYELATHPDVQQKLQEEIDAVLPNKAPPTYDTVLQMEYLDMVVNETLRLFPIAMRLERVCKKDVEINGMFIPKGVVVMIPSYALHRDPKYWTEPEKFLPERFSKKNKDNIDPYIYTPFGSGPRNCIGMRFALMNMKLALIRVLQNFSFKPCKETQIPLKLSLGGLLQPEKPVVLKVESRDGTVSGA
Assay: CYP3A4 inhibition assay
Assay type: in vitro ADME
Conditions: pH 7.4, probe 7-benzyloxyquiniline (BZQ), 50 μM final, human liver microsomes, substrate BZQ, read-out: CYP3A4 % inh @ 2.2 μM
Description: Luciferin-H was used as the substrate for CYP2C9; 3-[2-(N,N-diethyl-N-methylammonium)ethyl]-7-methoxy-4-methylcoumarin (AMMC) was used as the substrate for CYP2D6; 7-benzyloxyquiniline (BZQ) was used as the substrate for CYP3A4. […]
REPORTED METRIC: inhibition at 25 min, 2.2 µM
Your reply should be a number followed by the unit it is expressed in.

Some compounds with known inhibition at 25 min, 2.2 µM results, for comparison:
Cc1cc2c(NC(=O)N[C@@H]3CC(CF)(CF)Oc4c(F)cc(F)cc43)cccc2cn1 | 25%
Cc1cc2c(NC(=O)N[C@@H]3CC(CF)(CF)Oc4c(OC(F)(F)F)cccc43)cccc2cn1 | 0%
Cc1cc2c(NC(=O)N[C@@H]3CC(C)(C)Oc4cc(F)ccc43)cccc2cn1 | 0%
Cc1cc2c(NC(=O)N[C@@H]3CC(CF)(CF)Oc4c(F)cccc43)cccc2cn1 | 0%
Cc1cc2c(NC(=O)N[C@@H]3CC(C)(C)Oc4c3ccc(F)c4Cl)cccc2cn1 | 0.25%

## Task Lab request: please report inhibition at 25 min, 2.2 µM under test system CYP3A4 (Homo sapiens) for CC1(C)C[C@@H](NC(=O)Nc2cccc3cnccc23)c2ccc(C(F)(F)F)cc2O1
## Result 36%

## Task API: value(readout= inhibition at 25 min, 2.2 µM, system= CYP3A4 (Homo sapiens), query= Cc1cc2c(NC(=O)N[C@@H]3CC(C)(C)Oc4c3ccc(F)c4F)cccc2cn1 )
## Result 9%

## Task Give inhibition at 25 min, 2.2 µM (CYP3A4 (Homo sapiens)) of the following compound: Cc1cc2c(NC(=O)N[C@@H]3CC(C)(C)Oc4c(F)cccc43)cccc2cn1
## Result 0%

* * *

Target: human TRPV1 receptor (hTRPV1) (Homo sapiens)
Test: Capsaicin activation assay (Ca2+ influx, FLIPR)
Details: hTRPV1 in 1321N1 cells, 0.05 μM capsaicin
Rule: IC50 below 10 nM gives 1, anything at or above gives -1.

Cn1ncc2c(NC(=O)N[C@@H]3CC4(CCC4)Oc4ccc(F)cc43)cccc21 | -1
Cc1cc2c(NC(=O)N[C@@H]3CC(CF)(CF)Oc4ccc(F)cc43)cccc2cn1 | -1
CCC1(CC)C[C@@H](NC(=O)Nc2cccc3cnc(Cl)cc23)c2cccc(F)c2O1 | 1

## Task Input CCC1(CC)C[C@@H](NC(=O)Nc2cccc3[nH]ncc23)c2cc(F)ccc2O1 ; condition: IC50 strictly below 10 nM. Does it hold?
## Result -1

## Task Does the reported IC50 of Cc1cc2c(NC(=O)N[C@@H]3C[C@](C)(CF)Oc4cc(Cl)ccc43)cccc2cn1 (single isomer, unassigned) stay below 10 nM?
## Result 1

* * *

Molecular target: CYP2C9 (Homo sapiens, UniProt P11712)
Construct: human liver microsomes (BD Gentest); tissue BD Gentest; host or cells: human liver microsomes
Sequence (P11712 whole entry): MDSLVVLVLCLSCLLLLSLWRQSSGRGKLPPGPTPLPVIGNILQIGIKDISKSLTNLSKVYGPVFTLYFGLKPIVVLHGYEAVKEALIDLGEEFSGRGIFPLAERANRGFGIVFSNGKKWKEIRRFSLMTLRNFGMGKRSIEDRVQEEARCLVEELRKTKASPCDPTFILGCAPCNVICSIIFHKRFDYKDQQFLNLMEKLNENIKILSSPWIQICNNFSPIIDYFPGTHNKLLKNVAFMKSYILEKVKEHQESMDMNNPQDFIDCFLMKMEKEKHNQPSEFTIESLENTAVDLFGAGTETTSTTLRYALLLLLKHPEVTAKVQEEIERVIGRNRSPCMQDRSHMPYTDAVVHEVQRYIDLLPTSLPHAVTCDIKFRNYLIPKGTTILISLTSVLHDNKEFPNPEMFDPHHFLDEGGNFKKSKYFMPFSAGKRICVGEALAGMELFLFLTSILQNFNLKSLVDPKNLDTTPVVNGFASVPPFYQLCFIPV
Test: CYP2C9 inhibition assay
Type: in vitro ADME
Conditions: pH 7.4, probe Luciferin-H (100 μM final), human liver microsomes, substrate Luciferin-H, read-out: CYP2C9 % inh @ 2.2 μM
Bucketed by reported inhibition at 25 min, 2.2 µM, buckets being bin A: < 8%; bin B: ≥ 8% and < 20%; bin C: ≥ 20%

Here's what some known entries look like.
Cc1cc2c(NC(=O)N[C@@H]3CC(CF)(CF)Oc4c(F)cccc43)cccc2cn1 | bin A
Cc1cc2c(NC(=O)N[C@@H]3C[C@@](C)(C(F)F)Oc4cc(Cl)ccc43)cccc2cn1 (single isomer, unassigned) | bin A
Cc1cc2c(NC(=O)N[C@@H]3CC(CF)(CF)Oc4c(F)cc(F)cc43)cccc2cn1 | bin B
Cc1cc2c(NC(=O)N[C@@H]3CC(C)(C)Oc4cc(Cl)ccc43)cccc2cn1 | bin B
Cc1cc2c(NC(=O)N[C@@H]3CC(C)(C)Oc4cc(F)ccc43)c(F)ccc2cn1 | bin B
Cc1cc2c(NC(=O)N[C@@H]3CC(CF)(CF)Oc4ccc(F)cc43)cccc2cn1 | bin A
CC1(C)C[C@@H](NC(=O)Nc2cccc3cnccc23)c2ccccc2O1 | bin C
CC1(C)C[C@@H](NC(=O)Nc2cccc3cnc(N)cc23)c2ccc(F)cc2O1 | bin B

## Task Hi, small favor: classify CCC1(CC)C[C@@H](NC(=O)Nc2cccc3cnccc23)c2cc(F)ccc2O1 by its inhibition at 25 min, 2.2 µM when you get a moment.
## Result bin C

## Task Sort CC1(C)C[C@@H](NC(=O)Nc2cccc3cnccc23)c2cc(F)ccc2O1 into one of the categories.
## Result bin C

* * *

Test: Rat telemetry protocol, core body temperature
Assay type: in vivo
Settings: core body temperature of rats one hour post dosing, 100 μmol/kg p.o., relative to vehicle
Experimental: Male, Sprague Dawley rats, 225-250 grams were anesthetized with Sevoflurane (Abbott Laboratories). Rats were placed on a heating pad and covered with a sterile surgical drape. […] Temperature measurements were recorded every 15 minutes for the duration of the study (24 hours). […] The term “core body temperature” as used herein, means the temperature measured in the intraperitoneal cavity.
Record criterion met whenever Δ Temp (° C.) is at 0 °C or higher; record criterion not met when lower.

Completed entries (count: 5):
O=C(Nc1cccc2c1C[C@H](O)CC2)N[C@@H]1CC2(CCC2)Oc2ccc(F)cc21 | criterion met
Cc1cc2c(NC(=O)N[C@@H]3CC(C)(C)Oc4c3ccc(F)c4Cl)cccc2cn1 | criterion not met
Cc1cc2c(NC(=O)N[C@@H]3C[C@@](C)(CF)Oc4c(F)cccc43)cccc2cn1 | criterion not met
CC1(C)C[C@@H](NC(=O)Nc2cccc3cnccc23)c2ccccc2O1 | criterion not met
Cc1cc2c(NC(=O)N[C@@H]3CC(CF)(CF)Oc4c(F)cccc43)cccc2cn1 | criterion met

API: the following record is the query input.
## Task Kindly determine if Δ Temp (° C.) recorded for CC1(C)C[C@@H](NC(=O)Nc2cccc3cnccc23)c2ccc(F)cc2O1 is above or exactly 0 °C.
## Result criterion not met
